Tested on: Solanum nigrum (SOLNI)
protocol_notes: Post-emergence glasshouse herbicide test, Solanum nigrum
Assay type: in vivo
settings: 1000 g/h, evaluated after 13 days, five point scale
quantity: percentage damage caused to the plant, POST Application SOLNI

Short answer for "Cn1ncnc1NC(=O)c1nn2cnn(-c3ccc(F)cc3)c2nc1=O" : percentage damage caused to the plant, POST Application SOLNI was 5 (5=80-100%)

What the record says about "CCn1nnnc1NC(=O)c1nn2cnn(-c3ccc(C)cc3C)c2nc1=O" : percentage damage caused to the plant, POST Application SOLNI is 5 (5=80-100%)

The recorded percentage damage caused to the plant, POST Application SOLNI for entry "CCn1nnnc1NC(=O)c1nn2cnn(-c3ccccc3)c2nc1=O" equals 5 (5=80-100%)

The reported value for "CCCn1nnnc1NC(=O)c1nn2cnn(-c3ccccc3C)c2nc1=O" in terms of percentage damage caused to the plant, POST Application SOLNI is 5 (5=80-100%)

Entry "O=C1CCCC(=O)C1C(=O)c1nn2cnn(-c3ccc(F)cc3)c2nc1=O" — recorded percentage damage caused to the plant, POST Application SOLNI = 5 (5=80-100%)

Lookup result for "Cn1nnnc1NC(=O)c1nn2cnn(-c3ccccc3)c2nc1=O" ; measured percentage damage caused to the plant, POST Application SOLNI: 5 (5=80-100%)

Given item "CCCCn1nnnc1NC(=O)c1nn2cnn(-c3ccc(F)cc3)c2nc1=O" , the value recorded as its percentage damage caused to the plant, POST Application SOLNI is 5 (5=80-100%)

Per the record, "CCCCn1nnnc1NC(=O)c1nn2cnn(-c3ccc(C(F)(F)F)cc3)c2nc1=O" has percentage damage caused to the plant, POST Application SOLNI of 5 (5=80-100%)

The molecule identified as "CCCn1nnnc1NC(=O)c1nn2cnn(-c3ccc(OC)cc3)c2nc1=O" registered its percentage damage caused to the plant, POST Application SOLNI at 5 (5=80-100%)

Record "Cn1nnnc1NC(=O)c1nn2cnn(-c3ccc(F)cc3)c2nc1=O" . Reported percentage damage caused to the plant, POST Application SOLNI: 5 (5=80-100%)

Reported percentage damage caused to the plant, POST Application SOLNI ( "CCCn1nnnc1NC(=O)c1nn2cnn(-c3ccccc3)c2nc1=O" ) = 5 (5=80-100%)

According to the records, this molecule "Cn1cnnc1NC(=O)c1nn2cnn(-c3ccc(F)cc3)c2nc1=O" displays percentage damage caused to the plant, POST Application SOLNI of 5 (5=80-100%)
